The values you see were collected from the supplement of paper PMC8728848.

glycan array binding signal (z-score): recorded values
Biological target: Gal(b1-4)GlcNAc(b1-6)[Gal(b1-3)]GalNAc
Test: glycan array binding signal (z-score within array); higher = stronger binding
Conditions: glycan notation: IUPAC condensed, linker removed
The sample as a whole holds a higher share of the strongest signals than the screen did.
Could you keep your reply to the number by itself?

DCIR (Homo sapiens), Q9UMR7 (protein) MTSEITYAEVRFKNEFKSSGINTASSAASKERTAPHKSNTGFPKLLCASLLIFFLLLAISFFIAFVIFFQKYSQLLEKKTTKELVHTTLECVKKNMPVEETAWSCCPKNWKSFSSNCYFISTESASWQDSEKDCARMEAHLLVINTQEEQDFIFQNLQEESAYFVGLSDPEGQRHWQWVDQTPYNESSTFWHPREPSDPNERCVVLNFRKSPKRWGWNDVNCLGPQRSVCEMMKIHL : -0.161
MpAFP NterminalRI GFP (Marinomonas primoryensis) (protein) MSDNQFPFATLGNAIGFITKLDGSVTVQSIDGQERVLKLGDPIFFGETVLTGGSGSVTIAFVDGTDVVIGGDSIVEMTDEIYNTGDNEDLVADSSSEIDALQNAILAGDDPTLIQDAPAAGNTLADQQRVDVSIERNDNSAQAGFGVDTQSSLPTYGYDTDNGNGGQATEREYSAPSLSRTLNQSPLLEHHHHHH : 0.083
DBA (Dolichos biflorus) (protein) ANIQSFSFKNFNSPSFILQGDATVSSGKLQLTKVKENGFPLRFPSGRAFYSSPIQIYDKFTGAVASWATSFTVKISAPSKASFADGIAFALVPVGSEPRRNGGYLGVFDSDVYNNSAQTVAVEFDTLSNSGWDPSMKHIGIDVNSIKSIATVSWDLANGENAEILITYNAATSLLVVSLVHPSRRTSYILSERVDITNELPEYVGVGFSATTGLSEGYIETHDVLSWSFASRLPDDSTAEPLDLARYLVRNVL : -0.121
Thrombomodulin (Mus musculus) (protein) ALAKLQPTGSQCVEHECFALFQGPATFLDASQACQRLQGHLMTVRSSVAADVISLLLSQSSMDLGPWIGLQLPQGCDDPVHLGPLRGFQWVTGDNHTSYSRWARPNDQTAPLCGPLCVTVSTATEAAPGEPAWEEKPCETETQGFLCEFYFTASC : -0.326
Banana lectin (Musa acuminata) (protein) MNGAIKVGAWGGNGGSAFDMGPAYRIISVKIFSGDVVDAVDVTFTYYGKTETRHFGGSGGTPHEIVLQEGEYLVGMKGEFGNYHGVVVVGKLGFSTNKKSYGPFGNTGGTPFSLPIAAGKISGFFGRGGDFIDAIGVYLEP : -0.193

Switching to the query record.
Reported glycan array binding signal (z-score) of Calsepa (Calystegia sepium), P93114 (protein) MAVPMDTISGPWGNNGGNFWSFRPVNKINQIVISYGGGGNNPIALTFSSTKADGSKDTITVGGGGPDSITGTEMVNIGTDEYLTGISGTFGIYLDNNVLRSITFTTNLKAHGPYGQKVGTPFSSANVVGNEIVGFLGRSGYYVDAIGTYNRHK : -0.249
